The measurements presented in this section are drawn from PubChem BioAssay (NCI).

- method.notes: NCI Yeast Anticancer Drug Screen. Data for the mlh1 strain (AID 171);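 note: 0% = growth of vehicle-treated control cultures of the same strain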
- protocol.conditions: S. cerevisiae mlh1 strain growth inhibition; at 11.0 µM
Compounds without any hit were thinned out: in the full panel of roughly 79,000, 15% have a hit. The source made the active and inactive calls. Cut-off read from the data, not from the text of the source: active = growth inhibition above about 70%; inactive = the rest. Residues, ends and D or L forms follow the SMILES beside them. *: point of attachment. CH2Cl = ClC*
Please state which outcome applies, choosing from 1 (yes) for active, 0 (no) for inactive

Solved cases below.
| compound | class.name |
| --- | --- |
| CC(C)(C)[OH+][O-].[O-]c1ccc(Cl)cc1C=Nc1ccc(Cl)cc1[O-].[O]=[V] | 0 (no) |
| Cc1ccc2c(ccc(/C=C/c3ccc(O)c4ncccc34)[n+]2C)c1 | 1 (yes) |
| CCc1nc(N)nc(N)c1-c1ccc(NCCCCCCN)c([N+](=O)[O-])c1 | 0 (no) |
| O=C(O)c1[nH]c(=O)c2ccccc2c1Nc1ccccc1 | 0 (no) |
| N#C/C(=C1C=C/C(=N/O)c2ccccc2/1)c1ccccc1 | 0 (no) |
| CN(C)CC1CCCc2ccccc2C1=O (stereo not given) | 0 (no) |

Called result for CC(=O)NC(CC(C)C)C(=O)NC(Cc1ccccc1)C(=O)CCl (stereo not drawn) (Ac-Leu-Phe-CH2Cl; configuration not given here)
0 (no)

Called result for O=C(O)c1ccccc1.[Ag]
1 (yes)

Called result for CCC(C)(c1ccc(O)c(C)c1)c1ccc(O)c(C)c1
0 (no)

Called result for CNc1ccc(Cc2c[nH]c3ccccc23)cc1
0 (no)

* * *

- method.notes: NCI Yeast Anticancer Drug Screen. Data for the mec2-1 strain (AID 157)
- protocol.conditions: S. cerevisiae mec2-1 strain, at 11.0 µM, hits give high values
This is part of a sample that, as a whole, favours compounds with a hit. Of some 79,000 tested, about 15% had one in any assay.
Known growth inhibition of a selection of molecules
Entry rule: numbers only, all in %.

# count of solved cases: 5
| molecule | unit.descriptor | growth inhibition |
| --- | --- | --- |
| O=S(=O)(c1cc(Cl)ccc1O)c1cc(Cl)ccc1O | % | 99 |
| O=C(/C=C/c1cccc2ccccc12)c1ccc(Cl)cc1 | % | -2 |
| CC(C)(O)c1ccccc1C(c1ccccc1)c1ccccc1 | % | -2 |
| CCCCC1=NNC(=O)C1 | % | -8 |
| CC(=O)C1=C(O)C2(C)c3c(O)c(C)c(O)c(C(C)=O)c3OC2(Sc2ccccc2)CC1=O (configuration not stated) | % | 43 |

Give its growth inhibition value. Item: COc1ccc(/C=C2\SC(=S)N(C=C3C(=O)NC(=S)NC3=O)C2=O)cc1OC
58

Give its growth inhibition value. Item: CNc1ccc(Cc2c[nH]c3ccccc23)cc1
-23

Give its growth inhibition value. Item: N#CSC1CCCCNC1=O (configuration not stated)
25

Give its growth inhibition value. Item: Cc1cc(OCc2ccccc2)ccc1[N+](=O)[O-]
10

Give its growth inhibition value. Item: CN(Cc1cnc2nc(N)nc(N)c2n1)c1ccc(C(=O)NC(CCC(=O)O)C(=O)O)c2ccccc12 (configuration not stated)
92

Give its growth inhibition value. Item: CCOC(=O)C1=C(C)NC(C)=C(C(=O)OCC)C1c1ccccc1Cl
-2

* * *

- method.notes: NCI Yeast Anticancer Drug Screen. Data for the sgs1 strain (AID 173);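 note: 0% = growth of vehicle-only control cultures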
- protocol.conditions: S. cerevisiae sgs1 mutant, at 33.0 µM, hits give high values
Compounds without any hit were thinned out: in the full panel of roughly 79,000, 15% have a hit.
The label depends only on growth inhibition: T if it is at least 40%, F if it is smaller.

| compound | class.name |
| --- | --- |
| CCC(c1ccc(O)cc1)C(CC)c1ccc(OCCN)cc1 (configuration not stated) | F |
| CC1C(C#N)(C#N)C(C#N)=C(N)C1(Cl)[N+](=O)[O-] (configuration not stated) | T |
| CC(C)(C)[OH+][O-].[O-]c1ccc(Cl)cc1C=Nc1ccc(Cl)cc1[O-].[O]=[V] | F |
| CCCCC1=NNC(=O)C1 | F |
| C=C(C)[C@@H]1CCc2c(O)c(O)c(=O)cc(C)c2C1 | T |

Reported growth inhibition reaches at least 40% for N#CC(=S)Nc1cccc(Cl)c1 ?
T

Reported growth inhibition reaches at least 40% for Nc1ccc(S(=O)(=O)Nc2ccc(Nc3c4ccccc4nc4ccccc34)cc2)cc1 ?
T
